Data origin: patent US20220227830A1

Assay System: T1, full-length human GIPR with an N-terminal FLAG tag (human, UniProt P48546 22-466)
T1 sequence (looked up): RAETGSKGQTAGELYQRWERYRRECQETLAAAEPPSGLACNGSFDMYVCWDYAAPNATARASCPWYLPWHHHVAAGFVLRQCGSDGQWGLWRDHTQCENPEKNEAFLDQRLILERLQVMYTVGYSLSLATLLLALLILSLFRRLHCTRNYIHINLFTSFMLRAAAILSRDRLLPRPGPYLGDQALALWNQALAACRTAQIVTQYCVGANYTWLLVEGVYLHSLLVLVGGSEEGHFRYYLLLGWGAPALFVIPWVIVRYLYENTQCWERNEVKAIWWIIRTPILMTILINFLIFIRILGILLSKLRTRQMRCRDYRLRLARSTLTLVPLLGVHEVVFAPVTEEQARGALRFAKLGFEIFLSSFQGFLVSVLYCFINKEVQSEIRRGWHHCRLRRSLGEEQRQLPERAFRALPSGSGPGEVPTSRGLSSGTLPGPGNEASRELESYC
Test Name: cell-based or functional assay
Non-standard residues stand in square brackets, D forms with d. Groups on a side chain read outwards from the residue. No end group written: not given here. *: point of attachment. C15 diacid = O=C(O)CCCCCCCCCCCCCC(=O)*; NMeY = CN[C@@H](Cc1ccc(O)cc1)C(=O)O; Aib = CC(C)(N)C(=O)O
Observation Type: Human GIPR cAMP, HEK293T EC50 (pM)
API: value field is a number in pM; no unit string.

Example binders with recorded Human GIPR cAMP, HEK293T EC50:
[NMeY][Aib]EGTFISDYSIALDR[Aib]K([G5gE-C15 diacid])Q[Aib]DFVNWLLAQSPSSGAPPPS-NH2 [Compound 74] :: 0.4
Me-Y[Aib]EGTFISDYSI[Aib]KDR[Aib]AQ[Aib]DFVNWLLAQSPSSGAPPPS-NH2 (not fully specified (residues 1, 14)) [Compound 140] :: 0.4
YXEGTFISDYSIALDRXHQXDFVNWLLAQSPSSGAPPPS (not fully specified; Me-Tyr1; Aib 2,20; Km17 = Lys(linker printed 'GS'-C15DA); C-term NH2) [Compound 68] :: 0.7
[NMeY][Aib]EGTFISDYSI[Aib]LDR[Aib]AQ[Aib]NFVNWLLAQKPSSGAPPPS-NH2 (not fully specified (residue 30)) [Compound 123] :: 0.4

Now consider a different binder.
The binder listed as Me-Y[Aib]EGTFISDYSIAKDR[Aib]AQ[Aib]NFVNWLLAQSPSSGAPPPS-OH (not fully specified (residues 1, 14)) [Compound 150] has a reported Human GIPR cAMP, HEK293T EC50 of 0.3
